molecular target: monoclonal antibody 21-4-3; experiment: SPR, 21-4-3 captured via anti-mouse IgG, 500 nM
Reported binding as % of Reference Sequence (=100%) values for the following binders.
Please respond with the number in % and leave the unit unwritten.

Binder	Meas Value
Nanobody or Nanobody construct of SEQ ID NO: 87 (VHH) VHH: EVQLVESGGGSVQPGGSLRLSCAASRSIGRLDRMGWYRHRPGEPRELVATITGGSSINYGDSVKGRFTISIDNSKNTVYLQMNSLRPEDTAVYYCNFNKYVTSRDTWGQGTLVTVGG	41

Reported binding as % of Reference Sequence (=100%), binder Nanobody or Nanobody construct of SEQ ID NO: 48 (VHH) VHH: EVQLVESGGGLVQPGGSLRLSCIASGLPFSTKSMGWFRQAPGKEREFVARISPGGTSRYYGDFVKGRFAISRDNAKNTTWLQMNSLKAEDTAVYYCASGERSTYIGSNYYRTNEYDYWGTGTQVTVSS : ____
3
